# Test system: DLD-1 BRCA2−/− cells
# measurement notes: Homologous recombination synthetic lethal inhibition of proliferation, DLD-1 BRCA2-/- (Cell Titre Glo 3D)
# Assay type: cell-based
# test parameters: Homo sapiens, DLD-1, first proliferation column (c5); DLD-1 BRCA2-/-; read-out: POLQ PD Prolif Lumin (converted)
measure: IC50

Below, each entry is followed by its recorded IC50 result.
                                   molecule  measure  meas_value
0  Cc1ccnc(Cn2c(-c3ccc(C(=O)N4CCCNCC4)cc3Cl)nc3c(OC4(C)CC4)ncnc32)c1     IC50  > 10000 nM
1  C[C@@H](COc1cccc(-c2nc3c(OC4(C)CC4)ncnc3n2Cc2cccc(Cl)c2)c1Cl)C(=O)O     IC50      200 nM
2  C[C@H]1CNCCN1CCOc1ccc(-c2nc3c(OC4(C)CC4)ncnc3n2Cc2cc(Cl)ccn2)c(Cl)c1     IC50      200 nM
3  Cc1ccc(C)c(Cn2c(-c3ccc(OCCC(C)C(=O)O)cc3Cl)nc3c(OC4(C)CC4)ncnc32)c1 (single isomer, unassigned) [Example T572]     IC50      631 nM
4  CC1(Oc2ncnc3c2nc(-c2ccc(OCCCN4CC[C@@H](O)C4)cc2Cl)n3Cc2cc(Cl)ccn2)CC1     IC50      126 nM
5  C[C@@H]1CNCCN1CCOc1ccc(-c2nc3c(OC4(C)CC4)ncnc3n2Cc2cc(Cl)ccn2)c(Cl)c1     IC50      251 nM
6  Cc1ccnc(Cn2c(-c3ccc(OCCN4CCNCC4)cc3Cl)nc3c(OC4(C)CC4)ncnc32)c1F     IC50     2000 nM
7  CC1(Oc2ncnc3c2nc(-c2cccc(OCCCC(=O)O)c2Cl)n3Cc2cccc(Cl)c2)CC1     IC50     31.6 nM

Asked: Quick one: IC50 for Cc1cc(OCCN2CCNCC2)ccc1-c1nc2c(OC3(C)CC3)ncnc2n1Cc1cc(Cl)ccn1 ?
Given back: 631 nM

Asked: Param item = Cc1cccc(Cn2c(-c3ccc(OCCC(=O)O)cc3Cl)nc3c(OC4(C)CC4)ncnc32)c1 ; retrieve measured IC50.
Given back: 794 nM

Asked: # get_value(readout='IC50', item= CC1(Oc2ncnc3c2nc(-c2ccc(OCCCCCCC(=O)O)cc2Cl)n3Cc2cccc(Cl)c2)CC1 )
Given back: 39.8 nM
